Molecular target: Protein-S-isoprenylcysteine O-methyltransferase (Rattus norvegicus) (UniProt Q9WVM4)
Sequence (Q9WVM4 whole entry): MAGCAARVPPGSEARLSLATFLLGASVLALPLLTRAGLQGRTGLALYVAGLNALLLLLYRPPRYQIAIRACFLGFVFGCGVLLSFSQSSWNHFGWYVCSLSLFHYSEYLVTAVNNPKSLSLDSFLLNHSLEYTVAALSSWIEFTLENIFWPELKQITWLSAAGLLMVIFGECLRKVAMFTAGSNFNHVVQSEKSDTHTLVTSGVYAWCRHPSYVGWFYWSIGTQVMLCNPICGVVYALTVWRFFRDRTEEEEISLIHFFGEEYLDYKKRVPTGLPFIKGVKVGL
Assay: In vitro inhibition of Prenylated protein methyltransferase of rat brain cerebellar synaptosomes was assessed from the amount of [3H]-methyl esters formed in 15 min
Type: subcellular
observed-property: Amount formed (pmol)

Here's what some known entries look like.
• CCC(=O)SC/C=C(\C)CC/C=C(\C)CCC=C(C)C = 26.3
• CC(C)=CCC/C(C)=C/CC/C(C)=C/CNc1ccc(Cl)c(C(=O)O)c1 = 0.37
• CC(C)=CCC/C(C)=C/CC/C(C)=C/CSc1ccc(N)cc1C(=O)O = 0.89
• CC(C)=CCC/C(C)=C/CC/C(C)=C/CSc1ncccc1C(=O)O = 0.73

I: CC(=O)N(C/C=C(\C)CC/C=C(\C)CCC=C(C)C)C(CS)C(=O)O (stereo unspecified)
II: CC(C)=CCC/C(C)=C/CC/C(C)=C/CSc1ccccc1C(=O)O [SALIRASIB]
Please tell me which of the two, I or II , has the higher reported Amount formed value. Bench note: the answer is the label of the chosen record.
I

FYI, the data here is from ChEMBL document CHEMBL1128294.
